- System: human lung carcinoma cells (A549)
- Experiment Description: Cytotoxicity, MTT assay, A549
- Type: cell-based
- Experimental Conditions: Homo sapiens, A549; MTT, 24 hours
Observed Property: IC50 (µM)
Record the value in µM, omitting the unit from your answer.

Find the recorded IC50 belonging to `O=C1/C(=C/c2cc(/N=C/c3cccc(O)c3O)ccc2F)CNC/C1=C\c1cc(/N=C/c2cccc(O)c2O)ccc1F` and report it.
2.8

Find the recorded IC50 belonging to `O=C1/C(=C/c2cccc(/N=C/c3ccccc3O)c2)CCC/C1=C\c1cccc(/N=C/c2ccccc2O)c1` and report it.
7.4

Find the recorded IC50 belonging to `COc1cc(Br)cc(/C=N/c2cccc(/C=C3\CN(C)C/C(=C\c4cccc(/N=C/c5cc(Br)cc(OC)c5O)c4)C3=O)c2)c1O` and report it.
1.5

Find the recorded IC50 belonging to `CN1C/C(=C\c2cc(/N=C/c3cc(O)ccc3O)ccc2F)C(=O)/C(=C/c2cc(/N=C/c3cc(O)ccc3O)ccc2F)C1` and report it.
2.3

---

- Tested on: human chronic myelogenous leukemia cell line (K562)
- Experiment Description: Cytotoxicity, MTT assay, K562
- Type: cell-based
- Experimental Conditions: quotient of the IC50 values towards nonmalignant LO2 cells
Lab note: anything with K562 SI below 4 is marked 1; values at 4 or higher are marked -1.

Strictly below 4 in K562 SI? `COc1ccc(/C=N/c2cccc(/C=C3\CCC/C(=C\c4cccc(/N=C/c5ccc(OC)cc5O)c4)C3=O)c2)c(O)c1`
1

Strictly below 4 in K562 SI? `CN1C/C(=C\c2cc(/N=C/c3ccc(O)c(O)c3O)ccc2F)C(=O)/C(=C/c2cc(/N=C/c3ccc(O)c(O)c3O)ccc2F)C1`
-1

Strictly below 4 in K562 SI? `CN1C/C(=C\c2cc(/N=C/c3cc(O)ccc3O)ccc2F)C(=O)/C(=C/c2cc(/N=C/c3cc(O)ccc3O)ccc2F)C1`
-1

Strictly below 4 in K562 SI? `COc1ccc(/C=N/c2ccc(F)c(/C=C3\CNC/C(=C\c4cc(/N=C/c5ccc(OC)cc5O)ccc4F)C3=O)c2)c(O)c1`
-1

Strictly below 4 in K562 SI? `CN1C/C(=C\c2cccc(/N=C/c3ccccc3O)c2)C(=O)/C(=C/c2cccc(/N=C/c3ccccc3O)c2)C1`
1

Strictly below 4 in K562 SI? `O=C1/C(=C/c2cccc(/N=C/c3cc(Br)ccc3O)c2)CCC/C1=C\c1cccc(/N=C/c2cc(Br)ccc2O)c1`
1

---

- Test system: human acute mononuclear granulocyte leukemia (THP-1)
- Experiment Description: Cytotoxicity, MTT assay, THP-1
- Type: cell-based
- Experimental Conditions: quotient of the IC50 values towards nonmalignant LO2 cells
Quick rule: THP-1 SI of at least 7 means condition met, below that means condition not met.

Check this compound for THP-1 SI at or above 7: `CN1C/C(=C\c2cccc(/N=C/c3cc(F)ccc3O)c2)C(=O)/C(=C/c2cccc(/N=C/c3cc(F)ccc3O)c2)C1`
condition met

Check this compound for THP-1 SI at or above 7: `O=C1/C(=C/c2cccc(/N=C/c3ccccc3O)c2)CCC/C1=C\c1cccc(/N=C/c2ccccc2O)c1`
condition met

Check this compound for THP-1 SI at or above 7: `O=C1/C(=C/c2cc(/N=C/c3cc(O)ccc3O)ccc2F)CNC/C1=C\c1cc(/N=C/c2cc(O)ccc2O)ccc1F`
condition not met

Check this compound for THP-1 SI at or above 7: `COc1cc(Br)cc(/C=N/c2cccc(/C=C3\CCC/C(=C\c4cccc(/N=C/c5cc(Br)cc(OC)c5O)c4)C3=O)c2)c1O`
condition not met

Check this compound for THP-1 SI at or above 7: `CN1C/C(=C\c2cc(/N=C/c3cc(O)ccc3O)ccc2F)C(=O)/C(=C/c2cc(/N=C/c3cc(O)ccc3O)ccc2F)C1`
condition met

Check this compound for THP-1 SI at or above 7: `COc1ccc(/C=N/c2cccc(/C=C3\CCC/C(=C\c4cccc(/N=C/c5ccc(OC)cc5O)c4)C3=O)c2)c(O)c1`
condition not met

---

- Tested on: human chronic myelogenous leukemia cell line (K562)
- Experiment Description: Cytotoxicity, MTT assay, K562
- Assay type: cell-based
- Experimental Conditions: quotient of the IC50 values towards nonmalignant LO2 cells
Observed Property: K562 SI
Would you mind answering with just the numeric figure?

Find the recorded K562 SI belonging to CN1C/C(=C\c2cc(/N=C/c3cccc(O)c3O)ccc2F)C(=O)/C(=C/c2cc(/N=C/c3cccc(O)c3O)ccc2F)C1 [6a] and report it.
7.7

Find the recorded K562 SI belonging to O=C1/C(=C/c2cc(/N=C/c3cccc(O)c3O)ccc2F)CNC/C1=C\c1cc(/N=C/c2cccc(O)c2O)ccc1F [5a] and report it.
11.7

Find the recorded K562 SI belonging to COc1cc(Br)cc(/C=N/c2cccc(/C=C3\CCC/C(=C\c4cccc(/N=C/c5cc(Br)cc(OC)c5O)c4)C3=O)c2)c1O [3e] and report it.
2.7

Find the recorded K562 SI belonging to O=C1/C(=C/c2cccc(/N=C/c3cc(F)ccc3O)c2)CCC/C1=C\c1cccc(/N=C/c2cc(F)ccc2O)c1 [3b] and report it.
5.0

Find the recorded K562 SI belonging to O=C1/C(=C/c2cc(/N=C/c3cc(O)ccc3O)ccc2F)CNC/C1=C\c1cc(/N=C/c2cc(O)ccc2O)ccc1F [5b] and report it.
2.5

Find the recorded K562 SI belonging to O=C1/C(=C/c2cc(/N=C/c3ccc(O)c(O)c3O)ccc2F)CNC/C1=C\c1cc(/N=C/c2ccc(O)c(O)c2O)ccc1F [5c] and report it.
11.8

Find the recorded K562 SI belonging to CN1C/C(=C\c2cc(N)ccc2F)C(=O)/C(=C/c2cc(N)ccc2F)C1 [2d] and report it.
7.3

Find the recorded K562 SI belonging to COc1cc(Br)cc(/C=N/c2cccc(/C=C3\CN(C)C/C(=C\c4cccc(/N=C/c5cc(Br)cc(OC)c5O)c4)C3=O)c2)c1O [4e] and report it.
5.9

Find the recorded K562 SI belonging to CN1C/C(=C\c2cccc(/N=C/c3cc(F)ccc3O)c2)C(=O)/C(=C/c2cccc(/N=C/c3cc(F)ccc3O)c2)C1 [4b] and report it.
6.4

Find the recorded K562 SI belonging to O=C1/C(=C/c2cccc(/N=C/c3ccccc3O)c2)CCC/C1=C\c1cccc(/N=C/c2ccccc2O)c1 [3a] and report it.
5.4

Find the recorded K562 SI belonging to Nc1cccc(/C=C2\CCC/C(=C\c3cccc(N)c3)C2=O)c1 [2a] and report it.
1.3

Find the recorded K562 SI belonging to COc1ccc(/C=N/c2cccc(/C=C3\CN(C)C/C(=C\c4cccc(/N=C/c5ccc(OC)cc5O)c4)C3=O)c2)c(O)c1 [4d] and report it.
6.0

Find the recorded K562 SI belonging to Nc1ccc(F)c(/C=C2\CNC/C(=C\c3cc(N)ccc3F)C2=O)c1 [2c] and report it.
9.3

Find the recorded K562 SI belonging to CN1C/C(=C\c2cccc(/N=C/c3cc(Br)ccc3O)c2)C(=O)/C(=C/c2cccc(/N=C/c3cc(Br)ccc3O)c2)C1 [4c] and report it.
2.1

Find the recorded K562 SI belonging to COc1cc(/C=C/C(=O)CC(=O)/C=C/c2ccc(O)c(OC)c2)ccc1O [Curcumin, reference compound] and report it.
1.2

---

- Tested on: human gastric adenocarcinoma cells (SGC7901)
- Experiment Description: Cytotoxicity, MTT assay, SGC7901
- Format: cell-based
- Experimental Conditions: quotient of the IC50 values towards nonmalignant LO2 cells
Hi there, I'd appreciate the recorded SGC7901 SI for every entry that follows.

Find the recorded SGC7901 SI belonging to `CN1C/C(=C\c2cc(N)ccc2F)C(=O)/C(=C/c2cc(N)ccc2F)C1` and report it.
5.6

Find the recorded SGC7901 SI belonging to `COc1ccc(/C=N/c2ccc(F)c(/C=C3\CNC/C(=C\c4cc(/N=C/c5ccc(OC)cc5O)ccc4F)C3=O)c2)c(O)c1` and report it.
8.3

Find the recorded SGC7901 SI belonging to `CN1C/C(=C\c2cccc(/N=C/c3cc(Br)ccc3O)c2)C(=O)/C(=C/c2cccc(/N=C/c3cc(Br)ccc3O)c2)C1` and report it.
4.3

Find the recorded SGC7901 SI belonging to `Nc1ccc(F)c(/C=C2\CNC/C(=C\c3cc(N)ccc3F)C2=O)c1` and report it.
7.4

Find the recorded SGC7901 SI belonging to `COc1ccc(/C=N/c2cccc(/C=C3\CCC/C(=C\c4cccc(/N=C/c5ccc(OC)cc5O)c4)C3=O)c2)c(O)c1` and report it.
1.6

Find the recorded SGC7901 SI belonging to COc1cc(/C=C/C(=O)CC(=O)/C=C/c2ccc(O)c(OC)c2)ccc1O [Curcumin, reference compound] and report it.
1.3

Find the recorded SGC7901 SI belonging to `CN1C/C(=C\c2cccc(/N=C/c3cc(F)ccc3O)c2)C(=O)/C(=C/c2cccc(/N=C/c3cc(F)ccc3O)c2)C1` and report it.
10.0
